Reported Ki is given for each of the following compounds.
- systemUnderTest: TYK2 (Homo sapiens, UniProt P29597)
- Sequence (P29597 873-1187): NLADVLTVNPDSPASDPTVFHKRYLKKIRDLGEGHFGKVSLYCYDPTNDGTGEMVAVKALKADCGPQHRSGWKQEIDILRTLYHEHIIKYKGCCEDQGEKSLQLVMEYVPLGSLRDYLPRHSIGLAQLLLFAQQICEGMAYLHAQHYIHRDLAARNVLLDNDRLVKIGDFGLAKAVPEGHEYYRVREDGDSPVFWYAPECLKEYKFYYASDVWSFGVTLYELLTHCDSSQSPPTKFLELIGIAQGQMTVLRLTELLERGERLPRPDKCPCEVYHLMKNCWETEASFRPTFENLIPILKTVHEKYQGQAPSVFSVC
metric: Ki (nM)

compound	unitsSymbol	observedValue
OC[C@H]1CC[C@H](n2cnc3cnc4[nH]ccc4c32)CC1	nM	6.79
OC1CCCC(n2nnc3cnc4[nH]ccc4c32)C1 (single isomer, unassigned) [Example 551]	nM	88.6
COCCN(C)C(=O)NC1CCC(n2cnc3cnc4[nH]ccc4c32)C1 (racemic)	nM	536
O=C(CC1CC1)N1CCC[C@@H](n2cnc3cnc4[nH]ccc4c32)C1	nM	29.3
CC(=O)NCc1nc2cnc3[nH]ccc3c2n1C1CCCCC1	nM	30.1
CS(=O)(=O)NCc1nc2cnc3[nH]ccc3c2n1[C@H]1CCCOC1	nM	112
CCS(=O)(=O)NCCc1nc2cnc3[nH]ccc3c2n1C1CCCCC1	nM	22
CC(CC#N)N1CCC(n2c(C3CCC3)nc3cnc4[nH]ccc4c32)CC1 (racemic)	nM	128
CS(=O)(=O)N1[C@@H]2CC[C@H]1C[C@H](n1cnc3cnc4[nH]ccc4c31)C2	nM	19.8
C[C@@H](O)c1nc2cnc3[nH]ccc3c2n1C1CCN(Cc2cnco2)CC1	nM	96.7
CC(C)(C)OC(=O)NC1CCCC(n2cnc3cnc4[nH]ccc4c32)C1 (single isomer, unassigned) [Example 476]	nM	302
Cc1nc2cnc3[nH]ccc3c2n1C1CC2CCC1C2 (centres unmarked) [Example 121]	nM	5.09
C[C@@H](O)c1nc2cnc3[nH]ccc3c2n1[C@@H]1CCCN(C(=O)C2CCOCC2)C1	nM	1790
COCC(=O)NC1CCCC(n2cnc3cnc4[nH]ccc4c32)C1 (single isomer, unassigned) [Example 480]	nM	1100
C[C@@H](O)c1nc2cnc3[nH]ccc3c2n1[C@@H]1CCCO1	nM	308
Cc1nc2cnc3[nH]ccc3c2n1[C@@H]1C[C@H]2CC[C@@H](C1)N2Cc1ccccc1	nM	302
C[C@@H](O)c1nc2cnc3[nH]ccc3c2n1C1CC2CCC1C2 (some centres unmarked)	nM	2.92
C[C@@H](O)c1nc2cnc3[nH]cc(Br)c3c2n1C1CCC(CC#N)CC1 (some centres unmarked)	nM	2.2
CC(CC#N)N1CCC(n2c(C3CCOCC3)nc3cnc4[nH]ccc4c32)CC1 (racemic)	nM	382
CC(O)c1nc2cnc3[nH]ccc3c2n1C1CC2CCC1O2 (centres unmarked) [Example 906]	nM	119
O=C([C@H]1CCCN1)N1CCC(n2cnc3cnc4[nH]ccc4c32)CC1	nM	3190
CN(C)CC(=O)N1CC[C@@H](n2cnc3cnc4[nH]ccc4c32)C1	nM	2230
CC(O)c1nc2cnc3[nH]ccc3c2n1C1CCCN(C(=O)C2CCOC2)C1 (centres unmarked)	nM	599
CC(=O)NC1CCCC(n2cnc3cnc4[nH]ccc4c32)C1 (single isomer, unassigned) [Example 478]	nM	425
c1cc2c(ncc3ncn(C4CCN(C5CCOCC5)CC4)c32)[nH]1	nM	153
Cc1nc2cnc3[nH]ccc3c2n1C1CCN(C2COC2)CC1	nM	54.6
C[C@@H](O)c1nc2cnc3[nH]ccc3c2n1[C@@H]1CCCOC1	nM	176
O=C(CC(F)(F)F)NC1CCC(n2cnc3cnc4[nH]ccc4c32)C1 (racemic)	nM	48.9
O=C(N1CCC[C@@H](n2cnc3cnc4[nH]ccc4c32)C1)C1(C(F)(F)F)CC1	nM	43.4
O=C(C1CC1F)N1CCC[C@@H](n2cnc3cnc4[nH]ccc4c32)C1 (mixture of isomers)	nM	17.9
CCC(COC)n1cnc2cnc3[nH]ccc3c21 (racemic)	nM	812
FCCN1CCC(n2cnc3cnc4[nH]ccc4c32)CC1	nM	11.6
